All values here come from patent US20110053865A1.

# system_name: T1, recombinant human IL-12 (human, UniProt P29459 23-219; P29460 23-328)
# T1 construct: Bought (R&D Systems); also called hIL-12
# T1 sequence (looked up) 1: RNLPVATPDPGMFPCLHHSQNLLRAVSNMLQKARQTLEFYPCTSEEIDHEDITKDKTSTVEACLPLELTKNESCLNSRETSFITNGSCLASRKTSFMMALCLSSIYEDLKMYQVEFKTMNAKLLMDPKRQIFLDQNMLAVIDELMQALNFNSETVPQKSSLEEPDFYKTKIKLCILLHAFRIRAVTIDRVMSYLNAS
# T1 sequence (looked up) 2: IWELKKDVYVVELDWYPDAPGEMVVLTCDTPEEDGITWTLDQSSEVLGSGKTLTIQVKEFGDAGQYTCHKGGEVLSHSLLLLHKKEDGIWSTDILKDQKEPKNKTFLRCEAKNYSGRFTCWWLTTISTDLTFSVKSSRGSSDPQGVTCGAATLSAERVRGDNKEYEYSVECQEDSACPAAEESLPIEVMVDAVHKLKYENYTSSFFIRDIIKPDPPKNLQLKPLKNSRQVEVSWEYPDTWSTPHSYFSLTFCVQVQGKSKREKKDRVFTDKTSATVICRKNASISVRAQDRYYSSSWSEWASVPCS
# assay_name: alpha-screen, hIL-12/IL12Rbeta1-Fc
pIC50: −log10 of the molar value.
readout_label: pIC50

As a guide, the following entries are already answered.
>>> endpoint_value("P23IL3C1 (VHH, p40+ Nanobody) VHH: EVQLVESGGGSVQAGGSLRLSCKVSGIMFSDKGMGWFRQAPGKERETVAATNWSGGSTYYADSVKGRFTISRDNYKNTLHLQMASLKPEDTGIYYCAAAGDSWNSRRIEDYDYWGQGTPVTVSS")
9.00
>>> endpoint_value("P23IL 84A12 (VHH, p40+ Nanobody; c-myc, His6-tagged) VHH: EVQLVESGGGVVQAGESLRLSCAASGRSFSDYEMGWFRQAPGTEREFVASINRRGSSTFYADSVKGRFTISRDNTKNTVYLQMSSLKPEDTAVYLCAAGWLFPSSRSRDYDYWGQGTQVTVSS")
9.02

a: P23IL3G10 (VHH, p40+ Nanobody; c-myc, His6-tagged) VHH: EVQLVESGGGVVQAGESLRLSCAASGYNVKDYEMGWFRQAPGMEREFAAAISWRGSSTYYADSVKGRFTISRDNAKNTVYLQMSSLKPEDTAVYYCAAGRLYPSSRSRDYDYWGQGTQVTVSS
b: P23IL81E10 (VHH, p40+ Nanobody) VHH: EVQLVESGGGLVQAGGSLRLSCVASGRTFNTYGMGWFRQAPGKEREFVAANNWSGGATSYADSVKGRFTISRDNAKNTVFLQMNTLKPEDTAVYYCAAADRGGGWLVVRENDYDYWGQGTQVTVSS
Of a and b , whose reported pIC50 is the larger number? # answer = label of selected item
a
(a: 9.05, b: 7.64)
